FYI, the data here is from patent US20110201105A1.

# Tested on: AGS cells
# experiment: Cell growth using bovine cathelicidin variants in AGS cells (SRB assay)
# Format: cell-based, human
# Set-up: unit not given here
# reported-conditions: 72 hours, -ve control 0.247
# Experimental: A cellular growth assay was performed using seven bovine cathelicidin (CATHL) variants, namely CATHL1, 4, and 6 which are known in the art (the relevant sequences can be obtained using the following hyperlink: http://www.ncbi.nlm.nih.gov/entrez/query.fcqi?db=unigene&cmd=search&term=cathelicidin) and bovine Cathelicidins 8, 9, 10 and 11 (being LAMs 32.8, 32.9, 32.10 and 32.11, respectively) as identified herein and which are derived from LAM 32. […]
measurement-kind: cell growth Replicate 1
Answer as a number with no unit attached.

LAM 32.10: bovine cathelicidin variant, SEQ ID NO 175 (protein) METQRASLSLGRWSLWLLLLGLVLPSASAQALSYREAMLRAVDQLNERSSEAHLYRLLELDPPPDMSWGGDRGRAFLLPALATLLPLHSGCTSCQEGTFPSRWVPTSSRKASQTWVISQHQASCLSISAVGIGTLHTWLKFPGLLGAPGMGGS	0.602
LAM 32.11: bovine cathelicidin variant, SEQ ID NO 177 (protein) METQRASLSLGRWSLWLLLLGLVLPSASAQALSYREAMLRAVDQLNERSSEAHLYRLLGASTRPPSGHELGRGTGDEPFSCPALATLLPLHSGCTSCQEGTFPSRWVPTSSRKAVSRDLGHLPAPGYPCLSISAVGIGTLHTWLRFPGLLGSSRDGGVTGSVR	0.365

Query: Quote cell growth Replicate 1 reported for LAM 32.9: bovine cathelicidin variant, SEQ ID NO 173 (protein) METPRASLSLGRCSLWLLLLGLVLPSASAQALSYREAVLRAVDQFNERSSEANLYRLLELDPTPNDVSYEGIWAGRPASWGAGRQIRGRRMSPNPVSPTLTHDQDLDPGTRKPVSFRVKETDCPRTSQQPLEQCDFKENGVSLGAGEKNGRCFPGIGQRAWGRLPIPGRRPGGYGHRGFSLTLNLPFQLVKTVCGTARHQHN please.
Reply: 0.246

Query: // Input: LAM 32.8: bovine cathelicidin variant, SEQ ID NO 171 (protein) METPRASLSLGRWSLWLLLLGLALPSAQRPGPQLQGGRASCLMESASMKKSSEANLYRLLELDPPPKEDDENPNIPKPVSFRVKETVCPRTSQQSPEQCDFKENGLLKYCVGTVSRWDQVGSNFDITCAAPQSVGGLQAWVGRYYVLGKSMAQLLFQ . Output its cell growth Replicate 1 only.
Reply: 0.441
